pest or weed control at 500 ppm values for the molecules below.
Test system: Sphaerotheca fuliginea
Test: whole plant or invertebrate
Assay type: in vivo, Sphaerotheca fuliginea (cucumber plant, Suyo)
Details: Podosphaera fuliginea, in Cucumis sativus, 240 h; read-out: Protective value

{"SMILES_STR": "O=[N+]([O-])c1cc(C(F)(F)F)c(Cl)c([N+](=O)[O-])c1Nc1ccc(Cl)nc1Cl", "MEASUREMENT_UNITS": "%", "pest or weed control at 500 ppm": 95}
{"SMILES_STR": "O=[N+]([O-])c1cc(C(F)(F)F)cc([N+](=O)[O-])c1Nc1ncc(C(F)(F)F)cc1Br", "MEASUREMENT_UNITS": "%", "pest or weed control at 500 ppm": 100}
{"SMILES_STR": "O=[N+]([O-])c1cc(C(F)(F)F)c(Cl)c([N+](=O)[O-])c1Nc1nc(Cl)c(Br)cc1C(F)(F)F", "MEASUREMENT_UNITS": "%", "pest or weed control at 500 ppm": 100}
{"SMILES_STR": "O=[N+]([O-])c1cc(C(F)(F)F)cc([N+](=O)[O-])c1Nc1c(Cl)cncc1Cl", "MEASUREMENT_UNITS": "%", "pest or weed control at 500 ppm": 100}
{"SMILES_STR": "O=[N+]([O-])c1cc(C(F)(F)F)c(Cl)c([N+](=O)[O-])c1Nc1nc(Cl)c(C(F)(F)F)cc1Br", "MEASUREMENT_UNITS": "%", "pest or weed control at 500 ppm": 100}
{"SMILES_STR": "O=[N+]([O-])c1cc(C(F)(F)F)cc([N+](=O)[O-])c1Nc1nc(Cl)c(Br)cc1C(F)(F)F", "MEASUREMENT_UNITS": "%", "pest or weed control at 500 ppm": 100}
{"SMILES_STR": "O=[N+]([O-])c1cc(C(F)(F)F)cc([N+](=O)[O-])c1Nc1nc(Cl)c(C(F)(F)F)cc1Br", "MEASUREMENT_UNITS": "%", "pest or weed control at 500 ppm": 100}
{"SMILES_STR": "O=[N+]([O-])c1cc(C(F)(F)F)c(Cl)c([N+](=O)[O-])c1Nc1ncc(C(F)(F)F)cc1Cl", "MEASUREMENT_UNITS": "%", "pest or weed control at 500 ppm": 100}
{"SMILES_STR": "O=[N+]([O-])c1cc(C(F)(F)F)c(Cl)c([N+](=O)[O-])c1Nc1c(Cl)cncc1Cl", "MEASUREMENT_UNITS": "%", "pest or weed control at 500 ppm": 100}
{"SMILES_STR": "O=[N+]([O-])c1cc(C(F)(F)F)cc([N+](=O)[O-])c1Nc1nc(Cl)c(C(F)(F)F)cc1Cl", "MEASUREMENT_UNITS": "%", "pest or weed control at 500 ppm": 100}
{"SMILES_STR": "O=[N+]([O-])c1cc(C(F)(F)F)cc([N+](=O)[O-])c1Nc1ncc(Cl)cc1Cl", "MEASUREMENT_UNITS": "%", "pest or weed control at 500 ppm": 100}
{"SMILES_STR": "O=[N+]([O-])c1cc(C(F)(F)F)c(Cl)c([N+](=O)[O-])c1Nc1ncc(C(F)(F)F)cc1Br", "MEASUREMENT_UNITS": "%", "pest or weed control at 500 ppm": 100}
